Reported half-life by item:
- protocol-details: In vitro metabolic stability in serum/plasma (percent parent remaining, LC-MS)
- Format: in vitro ADME
- experimental-context: mouse
- Experimental: Exemplary miniproteins were spiked into biological matrices at initial concentration between 1-2 μM. Tested matrices were varied by species (mouse, rat, human) and type (plasma, serum, and kidney brush border membrane (kBBM) preparations tested each from 0.625-100 μg/mL protein content). Tested conditions were incubated with miniproteins at 37° C. for 4 h. […] Percent-parent-remaining in mouse serum and plasma for exemplary miniproteins are recorded in TABLE 11.
Bridges are numbered along the chain shown (N, C = ends). [ ]: non-standard residue; d: D form. The star is where a group is joined. DOTA = O=C(O)CN1CCN(CC(=O)O)CCN(CC(=O)*)CCN(CC(=O)O)CC1; Lys(Me3) = C[N+](C)(C)CCCC[C@H](N)C(=O)O; Cit = NC(=O)NCCC[C@H](N)C(=O)O; PEG4 = NCCOCCOCCOCCOCCC(=O)O

{DOTA-PEG4}-CDYDEQFFTALA[Cit]LRGGDICEYIQA[Lys(Me3)]FQYLPGLCIEEILDNLGCS-OH (disulfide 1-34, 20-44 (inferred)) [Compound C260]; 11.2 h
{DOTA-PEG4}-CEYDEEFFTALARLRGGDICQYIQAKFQYLPGQCIEEILDNLGCS-OH (disulfide 1-34, 20-44) [Compound C244]; > 12 h

Alright, here's another substance for you.
stdin: Given the entry {DOTA-PEG4}-CEYDEEFFTALARLRGDDICSYIQAKFQYLPGLCIEEILDNLGCS-OH (disulfide 1-34, 20-44 (inferred)) [Compound C293] , report its measured half-life.
stdout: > 12 h
